assaySummary: solvent given as SMILES
protocolConditions: in ClCCl
absorption maximum strictly under 400 nm means criterion met; at 400 nm or over means criterion not met.

Data request: Bench note: check whether CC(C)[Si]1(C(C)C)c2cc(C=C(C#N)C#N)ccc2-c2ccc(N(C)C)cc21 shows absorption maximum below 400 nm
Data returned: criterion not met

Read the next record carefully.
Data request: Problem: For the compound CC(=O)c1c(N[C@@H](CC(C)C)C(=O)O)c2ccc(N(C)C)cc2oc1=O , is absorption maximum under 400 nm?
Data returned: criterion met

* * *

assaySummary: solvent given as SMILES
protocolConditions: in CCOC(C)=O
metricName: absorption maximum (nm)
# output: bare number, implied unit nm

GET /value?item= N#CC(C#N)=Cc1cn(-c2ccccc2)nc1-c1ccccc1 &field=absorption maximum returns 352

New cases:
absorption maximum reading for CN1C(C(=O)Nc2ccccn2)=C(O)c2sccc2S1(=O)=O : 342

Reported absorption maximum ( N#Cc1nnn(-c2ccnc3cc(Cl)ccc23)c1N ) = 364.01

Reported absorption maximum ( O=C1c2ccc3c4ccc5c6c(ccc(c7ccc(c2c37)C(=O)N1c1ccncc1)c64)C(=O)N(c1ccncc1)C5=O ) = 519

absorption maximum in this record for CCCSC1=[N+]2C(=C(c3ccccc3)c3ccc(SCCC)n3[B-]2(F)F)C=C1 : 575

* * *

Items are presented alongside their recorded absorption maximum.
assaySummary: solvent given as SMILES
protocolConditions: in ClCCl
Reply numerically in nm, unit not repeated.

Some solved entries appear below for comparison.
Value of measured absorption maximum for the entry CCOC(=O)/N=c1/oc2cc(OC)cc(OC)c2cc1C#N : 376

// recorded absorption maximum for CC(C)c1cccc(C(C)C)c1N1C(=O)c2ccc3c4c(-c5ccc(C(=O)O)cc5)c5ccc6c7c(cc8c9cc(C(=O)O)ccc9c(c9ccc(c2c39)C1=O)c4c8c57)C(=O)N(c1c(C(C)C)cccc1C(C)C)C6=O : 607

Query c1ccc(C2=C(c3ccccc3)c3cccc4c3c(cc3nc5cc(-c6ccccc6)c(-c6ccccc6)cc5nc34)O2)cc1 yields absorption maximum of 507

Here is the next item to consider.
# molecule c1ccc(N(c2ccccc2)c2ccc(-c3nc4c5ccccc5c5ccccc5c4n3-c3ccccc3)cc2)cc1 ; its absorption maximum = 400

* * *

assaySummary: solvent given as SMILES
protocolConditions: in CCCCCC
metricName: absorption maximum (nm)
Just the number please, in nm, no unit attached.

compound CC(C)[Si](C#Cc1c2nsnc2c(C#C[Si](C(C)C)(C(C)C)C(C)C)c2nc3c(ccc4cc5ccccc5cc43)nc12)(C(C)C)C(C)C , absorption maximum observed: 579

Further cases:
Measured absorption maximum, O=c1c2ccccc2n2c3ccccc3c(=O)c3cc(-c4ccccc4)cc1c32 : 437

The compound listed as O=CC1=C(c2ccc(-c3cccs3)s2)CCC1 shows absorption maximum equal to 366

Reported absorption maximum for O=S1(=O)C2=C(c3ccc(-c4ccc(N(c5ccccc5)c5ccccc5)cc4)cc31)C1(C3=C(c4ccccc41)S(=O)(=O)c1cc(-c4ccc(N(c5ccccc5)c5ccccc5)cc4)ccc13)c1ccccc12 was 424

The compound listed as O=C(c1ccncc1)c1ccc(-n2c3ccccc3c3cc(-n4c5ccccc5c5ccccc54)ccc32)cc1 has a reported absorption maximum of 342.64

absorption maximum reported for this compound c1cc2ccc3cccc4c(-c5cc(-c6nccs6)nc(-c6nccs6)c5)cc(c1)c2c34 : 344

// recorded absorption maximum for c1ccc2nc3c(nc2c1)c1c2n3CCCN2CCCC1 : 408

CCCCCCC(CCCCCC)N1C(=O)c2cccc3c(-c4cc(OC)c(OC)c(OC)c4)ccc(c23)C1=O has a reported absorption maximum of 354.8

response.value for c1ccc(-c2nc3c(c4c2-c2ccccc2CC4)-c2ccccc2CC3)cc1 (field: absorption maximum) = 309

Looking up c1ccc(-n2c(-c3ccc(-c4ccc(-c5ccc(-c6nc7c8ccccc8c8ccccc8c7n6-c6ccccc6)cc5)cc4)cc3)nc3ccccc32)cc1 , I see its absorption maximum listed as 341

Quick note, absorption maximum for CCN(CC)c1ccc(-c2nc3c(c4c2-c2ccc(C#N)cc2CC4)-c2ccc(C#N)cc2CC3)cc1 landed at 369

The reported absorption maximum of the compound CCNCC was 193

Sample c1ccc(N2c3ccc4ccccc4c3-c3c4ccccc4nc[n+]3[B-]2(c2ccccc2)c2ccccc2)cc1 ; absorption maximum observed: 537

Lookup result for N#Cc1ccc2c(c1)CCc1nc(-c3ccc([N+](=O)[O-])cc3)c3c(c1-2)CCc1cc(C#N)ccc1-3 ; measured absorption maximum: 350

Query Cc1c(C2=[N+]3C(=Cc4c(C)c5ccccc5n4[B-]3(F)F)c3ccccc32)[nH]c2ccccc12 yields absorption maximum of 623

Please fill in: absorption maximum reported for CC(C)[Si](C#Cc1c2ccccc2c(C#C[Si](C(C)C)(C(C)C)C(C)C)c2nc3c(nc12)C1c2ccccc2C3c2ccccc21)(C(C)C)C(C)C = 445

Entry CCCCc1ccc2ccc3c(CCCC)ccc4ccc1c2c43 ; absorption maximum = 344

* * *

assaySummary: solvent given as SMILES
protocolConditions: in CCCCCC
Listed below: absorption maximum values for each entry.
Reply numerically in nm, unit not repeated.

The recorded absorption maximum for entry COc1ccc2cc3c(C)cc(=O)oc3cc2c1 equals 337

Just so you know, measured absorption maximum for Cc1ccc(C)n1-c1ccccc1 came out at 240

Just so you know, measured absorption maximum for C(=C\c1cccnc1)/c1ccc(Nc2ccccc2)cc1 came out at 352

Reported absorption maximum of CC1(C)CCc2c(c3ccccc3c3nc4c(nc23)c2c(c3ccccc34)OC(C)(C)CC2)O1 : 429.92

Please fill in: absorption maximum reported for CC1CC=C(c2ccc(-c3cccs3)s2)CC1 (stereo unspecified) = 341

Others:
Reported absorption maximum for CC(O)CC1=N/C(=C\c2cccc(N(C)C)c2)C(=O)N1C (stereo unspecified) was 352

Lookup result for O=C1c2cccc3c(-n4c5ccccc5c5ccccc54)ccc(c23)C(=O)N1C1CCCCC1 ; measured absorption maximum: 399

For Cc1c2ccncc2c(C)c2c1[nH]c1ccccc12 the compound record lists absorption maximum as 289.5

* * *

assaySummary: solvent given as SMILES
protocolConditions: in OCCOCCO
metricName: absorption maximum (nm)
Write the number in nm without appending the unit.

# absorption maximum of O=CC1=C(c2ccc(-c3cccs3)s2)CCC1 = 377

Measured absorption maximum of C1=C(c2ccc(-c3cccs3)s2)CCC(c2ccccc2)C1 (stereo unspecified) : 346

Briefly, absorption maximum measured for CC1CC=C(c2ccc(-c3cccs3)s2)CC1 (stereo unspecified) : 341

***
The measured absorption maximum associated with N#CC1=C(c2ccc(-c3cccs3)s2)CCC1 reads 367

For C1=C(c2ccc(-c3cccs3)s2)CCC1 the compound record lists absorption maximum as 347

For this compound ( O=Cc1ccc(-c2ccc(C3=CCCCC3)s2)s1 ), measured absorption maximum is 389

* * *

assaySummary: solvent given as SMILES
protocolConditions: in C1CCOC1
// bucketize absorption maximum: label 0 = under 300 nm, label 1 = from 300 nm up to 400 nm, label 2 = 400 nm and over

Data request: Could you place CN(C)c1ccc(-c2nc3c(c4c2-c2ccc(C#N)cc2CC4)-c2ccc(C#N)cc2CC3)cc1 in its proper category? Many thanks.
Data returned: label 1

Data request: Which absorption maximum category applies to CCN1c2ccc(/C=N/Nc3ccccn3)cc2Sc2cc(-c3ccc(OC)cc3)ccc21 here?
Data returned: label 1

Data request: Kindly identify the class of CN(C)c1ccc(/C=C/c2ccc(C#N)cc2)cc1 .
Data returned: label 1

* * *

assaySummary: solvent given as SMILES
protocolConditions: in ClC(Cl)Cl
metricName: absorption maximum (nm)
Express it in nm; write the number only.

The recorded absorption maximum for entry COc1ccc(-c2c(-c3ccc(C)cc3)c3n(c2-c2ccc(C)cc2)[B-](F)(F)[N+]2=C(c4ccc(C)cc4)C(/C=C/C(=O)OC4CC[C@@]5(C)C(=CC[C@H]6[C@@H]7CC[C@H]([C@H](C)CCCC(C)C)[C@@]7(C)CC[C@@H]65)C4)=C(c4ccc(C)cc4)C2=N3)cc1 (stereo not given in full) equals 662

Notebook: CC1(C)CCc2c(c3ccccc3c3nc4c5c(c6ccccc6c4nc23)OC(C)(C)CC5)O1 , absorption maximum read as 461.04

get_value(item= CC1=CC(/C=C/c2ccc(N(C)C)cc2)=[N+]2C1=C(c1ccccc1)c1c(C)cc(/C=C/c3ccc(N(C)C)cc3)n1[B-]2(F)F , readout=absorption maximum) returns 700

Entry CC1=CC(C)=[N+]2C1=C(c1ccc(I)cc1)c1c(C)cc(C)n1[B-]2(Oc1ccc(Cl)cc1)Oc1ccc(Cl)cc1 , absorption maximum reported as 506

Sample Cc1cc(O)c(C(C)C)cc1/N=C/c1ccc(O)cc1 ; absorption maximum observed: 337

Entry under test: CCCCCCCCOc1ccc(-c2c3c4n(c(-c5ccc(OCCCCCCCC)cc5)c3c3n2[B-](F)(F)[n+]2ccccc2N=3)[B-](F)(F)[n+]2ccccc2N=4)cc1 . Its absorption maximum was 638

Value of measured absorption maximum for the entry CCCCCCCCn1c(=O)c2cc3cc4cc5c(=O)n(CCCCCCCC)c(=O)c5cc4c(C#Cc4ccc(N(c5ccccc5)c5ccccc5)cc4)c3cc2c1=O : 515

For COc1cc2cc(OC)c(C#Cc3ccc([N+](=O)[O-])cc3)cc2cc1C#Cc1ccc([N+](=O)[O-])cc1 the compound record lists absorption maximum as 362

Further cases:
Per the record, CCCCC1(c2ccccc2)Nc2c(-c3ccc(N(C)C)cc3)ccc(-c3ccc(N(C)C)cc3)c2N=C1c1ccccc1 (stereo not given) has absorption maximum of 371

Kindly note the recorded absorption maximum for Cc1ccc(C2=C3C=CC(C#Cc4ccccc4)=[N+]3[B-](F)(F)n3c(C#Cc4ccccc4)ccc32)cc1 , which is 614

For reference, reported absorption maximum for CCn1c2ccccc2sc2c(C#N)c3[nH]c4ccccc4sc3c(C#N)c21 stands at 495

For this compound ( F[B-]1(F)n2c(cc3ccc4ccccc4c32)C(c2ccc(I)cc2)=C2C=C3CCc4ccccc4C3=[N+]21 ), measured absorption maximum is 634

Kindly note the recorded absorption maximum for CCOc1cc2c(cc1/C=C/C1=CC(=C(C#N)C#N)CC(C)(C)C1)c1ccccc1n2CC , which is 480

Reported absorption maximum for CCCCC(CC)CN1C(=O)c2cccc3c(C#Cc4ccc(N(c5ccccc5)c5ccc(C#Cc6ccc7c8c(cccc68)C(=O)N(CC(CC)CCCC)C7=O)cc5)cc4)ccc(c23)C1=O (stereo not given) was 466

The compound listed as c1ccc2cc3cc(-c4cc(-c5nccs5)nc(-c5nccs5)c4)ccc3cc2c1 has a reported absorption maximum of 394
